Taken from patent EP0319906A2.

Entries and their measured LD50 at 168 h follow.
# test: in vivo
# appliedConditions: mouse, po, orally given to male mice (ddY), dead mice counted after 7 days, Behrens-Kaerber method, read-out: LD₅₀

- molecule: "Cc1c(F)c(N2C[C@@H](C)N[C@@H](C)C2)c(F)c2c1c(=O)c(C(=O)O)cn2C1CC1 [Compound 1]"
  LD50 at 168 h: "> 2000 mg/kg"

Then this molecule:
Given the molecule Cc1c(F)c(N2CCNCC2)c(F)c2c1c(=O)c(C(=O)O)cn2C1CC1 [Compound 2] , write its reported LD50 at 168 h. > 2000 mg/kg

---

# Test system: C. Trachomatics G/ur 1242
# test: Antichlamydia activity, MIC in McCoy cells (inclusion bodies)
# Assay type: cell-based
# appliedConditions: C. Trachomatics G/ur 1242; McCoy cells, 36 °C for 40-48 hours; calculated for free base; read-out: minimum inhibitory concentrations (MIC)
recordedMetric: MIC (mg/L)
# number only, unit mg/L dropped from output

- compound: "O=C(O)c1cn(C2CC2)c2c(F)c(N3CCNCC3)c(F)cc2c1=O [Compound B, reference compound]"
  assayTarget: "C. Trachomatics G/ur 1242"
  measurement: 0.39
- compound: "Cc1c(F)c(N2CCC(N)C2)c(F)c2c1c(=O)c(C(=O)O)cn2C1CC1 (stereo not drawn) [Compound 3]"
  assayTarget: "C. Trachomatics G/ur 1242"
  measurement: 0.013
- compound: "C[C@@H]1CN(c2c(F)cc3c(=O)c(C(=O)O)cn(C4CC4)c3c2F)C[C@H](C)N1 [Compound C]"
  assayTarget: "C. Trachomatics G/ur 1242"
  measurement: 0.2

Given the compound Cc1c(F)c(N2C[C@@H](C)N[C@@H](C)C2)c(F)c2c1c(=O)c(C(=O)O)cn2C1CC1 [Compound 1] , write its reported MIC. 0.025

Given the compound Cc1c(F)c(N2CCNCC2)c(C#N)c2c1c(=O)c(C(=O)O)cn2C1CC1 [Compound D, reference compound] , write its reported MIC. 3.13

Given the compound Cc1c(F)c(N2CCNCC2)c(F)c2c1c(=O)c(C(=O)O)cn2C1CC1 [Compound 2] , write its reported MIC. 0.1

---

Entries and their measured MIC follow.
# Tested on: S. marcescens S-9
# test: In vitro antibacterial activity, twofold agar-dilution MIC
# Type: cell-based
# appliedConditions: Serratia marcescens, S9; S. marcescens S-9; Mueller-Hinton agar, 20-hour incubation at 37 °C; calculated for free base; read-out: minimum inhibitory concentrations (MIC)
Remember to quote the unit after the number.

Past entries and their recorded results:
- compound: "Cc1c(F)c(N2CCC(N)C2)c(F)c2c1c(=O)c(C(=O)O)cn2C1CC1 (centres unmarked)"
  MIC: "0.05 µg/mL"
- compound: "Cc1c(F)c(N2CCNCC2)cc2c1c(=O)c(C(=O)O)cn2C1CC1"
  MIC: "0.2 µg/mL"
- compound: "Cc1c(F)c(N2CCNCC2)c(C#N)c2c1c(=O)c(C(=O)O)cn2C1CC1 [Compound D, reference compound]"
  MIC: "0.39 µg/mL"

Given the compound C[C@@H]1CN(c2c(F)cc3c(=O)c(C(=O)O)cn(C4CC4)c3c2F)C[C@H](C)N1 , write its reported MIC. 0.2 µg/mL

Given the compound Cc1c(F)c(N2CCNCC2)c(F)c2c1c(=O)c(C(=O)O)cn2C1CC1 , write its reported MIC. 0.1 µg/mL

Given the compound O=C(O)c1cn(C2CC2)c2c(F)c(N3CCNCC3)c(F)cc2c1=O [Compound B, reference compound] , write its reported MIC. 0.05 µg/mL

Given the compound Cc1c(F)c(N2C[C@@H](C)N[C@@H](C)C2)cc2c1c(=O)c(C(=O)O)cn2C1CC1 , write its reported MIC. 0.39 µg/mL

Given the compound Cc1c(F)c(N2C[C@@H](C)N[C@@H](C)C2)c(F)c2c1c(=O)c(C(=O)O)cn2C1CC1 , write its reported MIC. 0.39 µg/mL

---

# Tested on: C. Trachomatics G/ur 1317
# test: Antichlamydia activity, MIC in McCoy cells (inclusion bodies)
# Type: cell-based
# appliedConditions: C. Trachomatics G/ur 1317; McCoy cells, 36 °C for 40-48 hours; calculated for free base; read-out: minimum inhibitory concentrations (MIC)
recordedMetric: MIC (µg/mL)
# number only, unit µg/mL dropped from output

- compound: "O=C(O)c1cn(C2CC2)c2c(F)c(N3CCNCC3)c(F)cc2c1=O [Compound B, reference compound]"
  assayTarget: "C. Trachomatics G/ur 1317"
  endpointUnit: "µg/mL"
  measurement: 0.39
- compound: "Cc1c(F)c(N2CCNCC2)c(F)c2c1c(=O)c(C(=O)O)cn2C1CC1"
  assayTarget: "C. Trachomatics G/ur 1317"
  endpointUnit: "µg/mL"
  measurement: 0.1
- compound: "Cc1c(F)c(N2CCC(N)C2)c(F)c2c1c(=O)c(C(=O)O)cn2C1CC1 (stereo not drawn)"
  assayTarget: "C. Trachomatics G/ur 1317"
  endpointUnit: "µg/mL"
  measurement: 0.013
- compound: "Cc1c(F)c(N2C[C@@H](C)N[C@@H](C)C2)c(F)c2c1c(=O)c(C(=O)O)cn2C1CC1"
  assayTarget: "C. Trachomatics G/ur 1317"
  endpointUnit: "µg/mL"
  measurement: 0.013
- compound: "Cc1c(F)c(N2CCNCC2)c(C#N)c2c1c(=O)c(C(=O)O)cn2C1CC1 [Compound D, reference compound]"
  assayTarget: "C. Trachomatics G/ur 1317"
  endpointUnit: "µg/mL"
  measurement: 3.13

Then this compound:
Specify MIC for C[C@@H]1CN(c2c(F)cc3c(=O)c(C(=O)O)cn(C4CC4)c3c2F)C[C@H](C)N1 , system C. Trachomatics G/ur 1317. 0.2

---

Entries and their measured LD50 at 7 days follow.
# test: in vivo
# appliedConditions: male, ddY, mouse, po

Given the compound Cc1c(F)c(N2C[C@@H](C)N[C@@H](C)C2)cc2c1c(=O)c(C(=O)O)cn2C1CC1 [Compound 4] , write its reported LD50 at 7 days. > 2000 mg/kg

Given the compound Cc1c(F)c(N2CCC(N)C2)c(F)c2c1c(=O)c(C(=O)O)cn2C1CC1 (centres unmarked) [Compound 3] , write its reported LD50 at 7 days. > 2000 mg/kg

---

# Tested on: C. Trachomatics G/ur 1448
# test: Antichlamydia activity, MIC in McCoy cells (inclusion bodies)
# Assay type: cell-based
# appliedConditions: C. Trachomatics G/ur 1448; McCoy cells, 36 °C for 40-48 hours; calculated for free base; read-out: minimum inhibitory concentrations (MIC)
Entries and their measured MIC follow.
# number only, unit µg/mL dropped from output

Past entries and their recorded results:
- molecule: "Cc1c(F)c(N2CCC(N)C2)c(F)c2c1c(=O)c(C(=O)O)cn2C1CC1 (stereo not drawn)"
  endpointUnit: "µg/mL"
  MIC: 0.013
- molecule: "C[C@@H]1CN(c2c(F)cc3c(=O)c(C(=O)O)cn(C4CC4)c3c2F)C[C@H](C)N1"
  endpointUnit: "µg/mL"
  MIC: 0.2
- molecule: "Cc1c(F)c(N2CCNCC2)c(C#N)c2c1c(=O)c(C(=O)O)cn2C1CC1 [Compound D, reference compound]"
  endpointUnit: "µg/mL"
  MIC: 3.13
- molecule: "Cc1c(F)c(N2CCNCC2)c(F)c2c1c(=O)c(C(=O)O)cn2C1CC1"
  endpointUnit: "µg/mL"
  MIC: 0.1
- molecule: "O=C(O)c1cn(C2CC2)c2c(F)c(N3CCNCC3)c(F)cc2c1=O [Compound B, reference compound]"
  endpointUnit: "µg/mL"
  MIC: 0.39

Then this molecule:
Given the molecule Cc1c(F)c(N2C[C@@H](C)N[C@@H](C)C2)c(F)c2c1c(=O)c(C(=O)O)cn2C1CC1 , write its reported MIC. 0.025

---

# test: Urinary excretion in mice
# Type: in vivo
# appliedConditions: mouse, in vivo; oral 5 mg/kg, mice; read-out: Urinary recovery for 24 hours
recordedMetric: dose excreted at 24 h

Given the compound Cc1c(F)c(N2C[C@@H](C)N[C@@H](C)C2)c(F)c2c1c(=O)c(C(=O)O)cn2C1CC1 , write its reported dose excreted at 24 h. 12.7%

---

# Test system: C. Trachomatics G/ur 931
# test: Antichlamydia activity, MIC in McCoy cells (inclusion bodies)
# Type: cell-based
# appliedConditions: C. Trachomatics G/ur 931; McCoy cells, 36 °C for 40-48 hours; calculated for free base; read-out: minimum inhibitory concentrations (MIC)
Entries and their measured MIC follow.
# number only, unit µg/mL dropped from output

- molecule: "C[C@@H]1CN(c2c(F)cc3c(=O)c(C(=O)O)cn(C4CC4)c3c2F)C[C@H](C)N1 [Compound C]"
  endpointUnit: "µg/mL"
  MIC: 0.2
- molecule: "O=C(O)c1cn(C2CC2)c2c(F)c(N3CCNCC3)c(F)cc2c1=O [Compound B, reference compound]"
  endpointUnit: "µg/mL"
  MIC: 0.39
- molecule: "Cc1c(F)c(N2CCC(N)C2)c(F)c2c1c(=O)c(C(=O)O)cn2C1CC1 (stereo not drawn) [Compound 3]"
  endpointUnit: "µg/mL"
  MIC: 0.013

Given the molecule Cc1c(F)c(N2CCNCC2)c(F)c2c1c(=O)c(C(=O)O)cn2C1CC1 [Compound 2] , write its reported MIC. 0.05

Given the molecule Cc1c(F)c(N2CCNCC2)c(C#N)c2c1c(=O)c(C(=O)O)cn2C1CC1 [Compound D, reference compound] , write its reported MIC. 1.56

Given the molecule Cc1c(F)c(N2C[C@@H](C)N[C@@H](C)C2)c(F)c2c1c(=O)c(C(=O)O)cn2C1CC1 [Compound 1] , write its reported MIC. 0.013
